Provenance of the data: paper PMC9688225

assayed-system: GluA2 AMPA receptor subunit (flip isoform) (Homo sapiens, UniProt P42262)
Construct: expressed in transfected cells; host or cells: HEK293
Sequence (P42262 25-883 isoform P42262-2 limits assumed): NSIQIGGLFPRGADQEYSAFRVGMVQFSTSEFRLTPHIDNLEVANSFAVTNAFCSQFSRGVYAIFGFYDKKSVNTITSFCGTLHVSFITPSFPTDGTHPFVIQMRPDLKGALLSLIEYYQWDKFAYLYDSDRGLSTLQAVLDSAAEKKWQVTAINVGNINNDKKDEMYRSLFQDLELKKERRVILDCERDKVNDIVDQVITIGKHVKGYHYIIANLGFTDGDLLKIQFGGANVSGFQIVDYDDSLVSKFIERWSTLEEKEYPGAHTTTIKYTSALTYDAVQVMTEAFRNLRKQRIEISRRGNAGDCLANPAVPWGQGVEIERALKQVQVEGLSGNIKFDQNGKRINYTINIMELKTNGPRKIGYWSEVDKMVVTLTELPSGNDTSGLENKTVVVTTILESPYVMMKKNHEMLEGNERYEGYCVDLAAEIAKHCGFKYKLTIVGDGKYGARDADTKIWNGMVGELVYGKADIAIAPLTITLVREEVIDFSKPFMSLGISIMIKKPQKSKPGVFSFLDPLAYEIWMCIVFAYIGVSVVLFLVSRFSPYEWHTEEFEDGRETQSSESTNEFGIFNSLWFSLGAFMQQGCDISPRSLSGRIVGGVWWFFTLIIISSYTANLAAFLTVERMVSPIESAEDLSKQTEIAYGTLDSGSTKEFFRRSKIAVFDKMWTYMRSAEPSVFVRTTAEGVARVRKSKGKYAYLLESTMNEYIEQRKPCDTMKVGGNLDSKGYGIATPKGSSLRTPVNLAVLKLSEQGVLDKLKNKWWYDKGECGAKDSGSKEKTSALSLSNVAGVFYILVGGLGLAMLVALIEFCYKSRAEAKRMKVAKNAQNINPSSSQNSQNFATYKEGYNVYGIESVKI
test-description: Whole-cell patch-clamp electrophysiology, homomeric GluA2 expressed in HEK293 cells
Assay type: cell-based
study-conditions: glutamate + 12 µM compound, glutamate alone 2.4±0.1 ms
measured-attribute: t deact (weighted deactivation time constant) (ms)
One number for each entry, in ms.

Recorded results for 4 compounds are shown here.
O=C(CCCCC1CCSS1)OCCCCCCO (centres unmarked) [LA4, 1-Hydroxy-6-Lipoester] | 7.1
O=C(O)CCCCC1CCSS1 (stereo not drawn) [α-LA, alpha-Lipoic acid, reference compound] | 8.8
O=C(CCCCC1CCSS1)OCCCCCCO[N+](=O)[O-] (centres unmarked) | 7.7
O=C(CCCCC1CCSS1)OCCCO[N+](=O)[O-] (centres unmarked) | 10.9

Lookup: Given the compound O=C(CCCCC1CCSS1)OCCCO (centres unmarked) [LA1, 1-Hydroxy-3-Lipo Ester] , write its reported t deact (weighted deactivation time constant).
Found: 10.4

====

assayed-system: GluA2 AMPA receptor subunit (flip isoform) (Homo sapiens, UniProt P42262)
Construct: expressed in transfected cells; host or cells: HEK293
test-description: Whole-cell patch-clamp electrophysiology, homomeric GluA2 expressed in HEK293 cells
Type: cell-based
study-conditions: whole-cell normalized peak amplitude, Hill fit, unit printed in the text, not in Table S6, read-out: IC50
Give measured pIC50 for each item. Keep answers brief.
Give bare numbers, as −log10 of the molar value.

Recorded results for 4 compounds are shown here.
O=C(CCCCC1CCSS1)OCCCCCCO[N+](=O)[O-] (centres unmarked) | 5.36
O=C(CCCCC1CCSS1)OCCCO (centres unmarked) [LA1, 1-Hydroxy-3-Lipo Ester] | 5.44
O=C(CCCCC1CCSS1)OCCCCCCO (centres unmarked) [LA4, 1-Hydroxy-6-Lipoester] | 5.35
O=C(CCCCC1CCSS1)OCCCO[N+](=O)[O-] (centres unmarked) | 5.45

Switching to the query record.
Lookup: Given the compound O=C(O)CCCCC1CCSS1 (stereo not drawn) [α-LA, alpha-Lipoic acid, reference compound] , write its reported pIC50.
Found: 5.41

====

assayed-system: GluA1/2 AMPA receptor subunits (flip isoform) (Homo sapiens, UniProt P42261+P42262)
Construct: expressed in transfected cells; host or cells: HEK293
test-description: Whole-cell patch-clamp electrophysiology, heteromeric GluA1/2 expressed in HEK293 cells
Assay type: cell-based
study-conditions: 10 mM glutamate + 12 µM compound, −60 mV, pH 7.4, 22 °C, mean ± SEM, n = 10
Label yes when Amplitude (glutamate + compound) is at or above 70 pA; anything below gets no.

Example results:
O=C(CCCCC1CCSS1)OCCCO[N+](=O)[O-] (centres unmarked) | no
O=C(CCCCC1CCSS1)OCCCCCCO (centres unmarked) [LA4, 1-Hydroxy-6-Lipoester] | yes
O=C(CCCCC1CCSS1)OCCCCCCO[N+](=O)[O-] (centres unmarked) | yes

Let us examine a further case.
Lookup: Given the entry O=C(CCCCC1CCSS1)OCCCO (centres unmarked) [LA1, 1-Hydroxy-3-Lipo Ester] , answer whether its Amplitude (glutamate + compound) meets or surpasses 70 pA.
Found: no

====

assayed-system: GluA1 AMPA receptor subunit (flip isoform) (Homo sapiens)
Construct: expressed in transfected cells; host or cells: HEK293
test-description: Whole-cell patch-clamp electrophysiology, homomeric GluA1 expressed in HEK293 cells
Format: cell-based
study-conditions: glutamate + 12 µM compound, glutamate alone 2.2±0.1 ms
measured-attribute: t deact (weighted deactivation time constant) (ms)
Give bare numbers, in ms.

O=C(O)CCCCC1CCSS1 (stereo not drawn) [α-LA, alpha-Lipoic acid, reference compound] | 9.1

// for each compound in input: emit t deact (weighted deactivation time constant)
1. O=C(CCCCC1CCSS1)OCCCCCCO[N+](=O)[O-] (centres unmarked)
2. O=C(CCCCC1CCSS1)OCCCO (centres unmarked) [LA1, 1-Hydroxy-3-Lipo Ester]
3. O=C(CCCCC1CCSS1)OCCCCCCO (centres unmarked) [LA4, 1-Hydroxy-6-Lipoester]

Found:
1: 8.1; 2: 9.5; 3: 7.5

Lookup: Find the measured t deact (weighted deactivation time constant) of O=C(CCCCC1CCSS1)OCCCO[N+](=O)[O-] (centres unmarked) with GluA1 AMPA receptor subunit (flip isoform) (Homo sapiens) as test system.
Found: 11.6

====

assayed-system: GluA1 AMPA receptor subunit (flip isoform) (Homo sapiens)
Construct: expressed in transfected cells; host or cells: HEK293
test-description: Whole-cell patch-clamp electrophysiology, homomeric GluA1 expressed in HEK293 cells
Assay type: cell-based
study-conditions: glutamate + 12 µM compound, glutamate alone 2.3±0.1 ms
Label satisfied when t des (weighted desensitization time constant) is at or above 1 ms; anything below gets not satisfied.

O=C(O)CCCCC1CCSS1 (stereo not drawn) [α-LA, alpha-Lipoic acid, reference compound] | satisfied
O=C(CCCCC1CCSS1)OCCCCCCO (centres unmarked) [LA4, 1-Hydroxy-6-Lipoester] | satisfied
O=C(CCCCC1CCSS1)OCCCO[N+](=O)[O-] (centres unmarked) | not satisfied
O=C(CCCCC1CCSS1)OCCCO (centres unmarked) [LA1, 1-Hydroxy-3-Lipo Ester] | not satisfied

Let us examine a further case.
Lookup: Given the entry O=C(CCCCC1CCSS1)OCCCCCCO[N+](=O)[O-] (centres unmarked) , answer whether its t des (weighted desensitization time constant) meets or surpasses 1 ms.
Found: satisfied

====

assayed-system: GluA1/2 AMPA receptor subunits (flip isoform) (Homo sapiens, UniProt P42261+P42262)
Construct: expressed in transfected cells; host or cells: HEK293
test-description: Whole-cell patch-clamp electrophysiology, heteromeric GluA1/2 expressed in HEK293 cells
Assay type: cell-based
study-conditions: glutamate + 12 µM compound, glutamate alone 2.5±0.3 ms
Give measured t deact (weighted deactivation time constant) for each item. Keep answers brief.
Numbers only, in ms.

Recorded results for 4 molecules are shown here.
O=C(O)CCCCC1CCSS1 (stereo not drawn) [α-LA, alpha-Lipoic acid, reference compound] | 8.9
O=C(CCCCC1CCSS1)OCCCCCCO[N+](=O)[O-] (centres unmarked) [LA3, 1-Nitrooxy–Hexane-6-lipoyl ester] | 7.9
O=C(CCCCC1CCSS1)OCCCO[N+](=O)[O-] (centres unmarked) [LA2, 1-Nitrooxy–propane-3-lipoyl ester] | 11.1
O=C(CCCCC1CCSS1)OCCCCCCO (centres unmarked) [LA4, 1-Hydroxy-6-Lipoester] | 7.4

Switching to the query record.
Lookup: Find the measured t deact (weighted deactivation time constant) of O=C(CCCCC1CCSS1)OCCCO (centres unmarked) [LA1, 1-Hydroxy-3-Lipo Ester] with GluA1/2 AMPA receptor subunits (flip isoform) (Homo sapiens, UniProt P42261+P42262) as test system.
Found: 10.1

====

assayed-system: GluA1 AMPA receptor subunit (flip isoform) (Homo sapiens, UniProt P42261)
Construct: expressed in transfected cells; host or cells: HEK293
Sequence (P42261 19-906 isoform P42261-2 limits assumed): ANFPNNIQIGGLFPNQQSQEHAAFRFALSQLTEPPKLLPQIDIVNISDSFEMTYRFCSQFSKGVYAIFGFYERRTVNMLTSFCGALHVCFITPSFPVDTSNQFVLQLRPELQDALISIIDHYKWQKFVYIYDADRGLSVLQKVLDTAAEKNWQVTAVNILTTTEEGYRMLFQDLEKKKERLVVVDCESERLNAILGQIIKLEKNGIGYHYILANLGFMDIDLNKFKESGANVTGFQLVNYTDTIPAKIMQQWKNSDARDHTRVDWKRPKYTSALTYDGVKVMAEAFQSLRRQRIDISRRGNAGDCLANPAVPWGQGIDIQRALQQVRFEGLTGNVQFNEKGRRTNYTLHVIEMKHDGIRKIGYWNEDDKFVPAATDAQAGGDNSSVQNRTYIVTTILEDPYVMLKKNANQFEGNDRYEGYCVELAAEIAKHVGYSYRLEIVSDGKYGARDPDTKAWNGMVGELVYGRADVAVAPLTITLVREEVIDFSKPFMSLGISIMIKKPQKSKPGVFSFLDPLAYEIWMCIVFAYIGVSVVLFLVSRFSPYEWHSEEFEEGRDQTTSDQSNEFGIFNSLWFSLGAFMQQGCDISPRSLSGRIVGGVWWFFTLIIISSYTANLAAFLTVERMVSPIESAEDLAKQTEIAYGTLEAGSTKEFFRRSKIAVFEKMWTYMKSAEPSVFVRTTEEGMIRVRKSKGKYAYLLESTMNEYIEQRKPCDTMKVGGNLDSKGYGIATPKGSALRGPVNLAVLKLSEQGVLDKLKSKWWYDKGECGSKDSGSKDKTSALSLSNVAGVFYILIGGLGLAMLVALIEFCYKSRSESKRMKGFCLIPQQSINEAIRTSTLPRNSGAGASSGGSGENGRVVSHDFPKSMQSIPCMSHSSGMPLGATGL
test-description: Whole-cell patch-clamp electrophysiology, homomeric GluA1 expressed in HEK293 cells
Type: cell-based
study-conditions: Hill fit, read-out: Log IC50 (converted)
Give measured IC50 for each item. Keep answers brief.
Answers are plain numbers, in µM.

Recorded results for 4 compounds are shown here.
O=C(CCCCC1CCSS1)OCCCO (centres unmarked) [LA1, 1-Hydroxy-3-Lipo Ester] | 3.47
O=C(CCCCC1CCSS1)OCCCCCCO (centres unmarked) [LA4, 1-Hydroxy-6-Lipoester] | 4.17
O=C(O)CCCCC1CCSS1 (stereo not drawn) [α-LA, alpha-Lipoic acid, reference compound] | 3.55
O=C(CCCCC1CCSS1)OCCCCCCO[N+](=O)[O-] (centres unmarked) | 3.63

Switching to the query record.
Lookup: Find the measured IC50 of O=C(CCCCC1CCSS1)OCCCO[N+](=O)[O-] (centres unmarked) with GluA1 AMPA receptor subunit (flip isoform) (Homo sapiens, UniProt P42261) as test system.
Found: 3.39

====

assayed-system: GluA1/2 AMPA receptor subunits (flip isoform) (Homo sapiens, UniProt P42261+P42262)
Construct: expressed in transfected cells; host or cells: HEK293
test-description: Whole-cell patch-clamp electrophysiology, heteromeric GluA1/2 expressed in HEK293 cells
Assay type: cell-based
study-conditions: whole-cell normalized peak amplitude, Hill fit, unit printed in the text, not in Table S6, read-out: IC50
Give measured pIC50 for each item. Keep answers brief.
Numbers only, as −log10 of the molar value.

Recorded results for 4 compounds are shown here.
O=C(O)CCCCC1CCSS1 (stereo not drawn) [α-LA, alpha-Lipoic acid, reference compound] | 5.41
O=C(CCCCC1CCSS1)OCCCO[N+](=O)[O-] (centres unmarked) | 5.47
O=C(CCCCC1CCSS1)OCCCCCCO[N+](=O)[O-] (centres unmarked) | 5.36
O=C(CCCCC1CCSS1)OCCCCCCO (centres unmarked) [LA4, 1-Hydroxy-6-Lipoester] | 5.36

Lookup: Given the compound O=C(CCCCC1CCSS1)OCCCO (centres unmarked) [LA1, 1-Hydroxy-3-Lipo Ester] , write its reported pIC50.
Found: 5.45
